molecular target: rabbit antibody A4 scFv H-S53A (rabbit); assay: ITC; iTC200; 5 μM scFv in the cell, 50 μM peptide in the syringe; samples dialyzed against PBS; triplicate
Sequence (heavy, as listed by the source, chain 1 of 2): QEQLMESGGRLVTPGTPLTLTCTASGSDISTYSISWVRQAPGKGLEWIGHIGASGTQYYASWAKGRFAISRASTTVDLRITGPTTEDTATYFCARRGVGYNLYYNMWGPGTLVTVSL
Sequence (light, as listed by the source, chain 2 of 2): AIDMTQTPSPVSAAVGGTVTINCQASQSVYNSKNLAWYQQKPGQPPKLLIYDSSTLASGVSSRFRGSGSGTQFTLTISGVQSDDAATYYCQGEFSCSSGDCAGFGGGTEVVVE
Where no end group is shown, it is not given here. [ ]: non-standard residue; d: D form. pS = N[C@@H](COP(=O)(O)O)C(=O)O
measurement-type: pKd
Scale: pKd equals -log10([C]), with [C] in mol/L.

Req: Value lookup for pKd; key = RPHFPQF[pS]YSAS [phosphorylated Akt peptide]
Resp: 8.45
